normalised indicator fluorescence by entry:
- Tested on: SARS-CoV-2 low-rank motif (SARS-low)
- EXPERIMENTAL_DETAILS: normalised indicator fluorescence (fraction of RNA + indicator signal without compound); higher = less displacement of indicator (weaker competition)
- TEST_CONDITIONS: compound concentration: 5 uM; 30 min; indicator: TO-PRO-3 0.5 uM; RNA concentration: 0.5 uM
Where a name gives a salt, the structure may show the parent alone.
OBSERVED_PROPERTY: normalised indicator fluorescence

- COMPOUND: "CN1CCN(c2ccc(C(=O)Nc3n[nH]c4ccc(Cc5cc(F)cc(F)c5)cc34)c(NC3CCOCC3)c2)CC1"
  EXPERIMENTAL_RESULT: 1.39
- COMPOUND: "Nc1c(Br)cc(Br)cc1CN[C@H]1CC[C@H](O)CC1"
  EXPERIMENTAL_RESULT: 0.984
- COMPOUND: "OC[C@H]1O[C@@H](Oc2ccc(O)cc2)[C@H](O)[C@@H](O)[C@@H]1O"
  EXPERIMENTAL_RESULT: 1.25
- COMPOUND: "COC(=O)C1=CC[C@@]23CC[C@@H]([C@@](C)(/C=C/C=C(\\C)C(=O)O)OC2=O)[C@@]3(OC(C)=O)CC1"
  EXPERIMENTAL_RESULT: 1.27
- COMPOUND: "O=C(Nc1ccc2[nH]nc(-c3ccncc3)c2c1)[C@@H]1CCN(CC(=O)N2CCN(c3ccc(-c4ncccn4)cc3)CC2)C1"
  EXPERIMENTAL_RESULT: 1.26
- COMPOUND: "CCCC(C(=O)OCCN(CC)CC)(c1ccccc1)c1ccccc1 [Proadifen hydrochloride]"
  EXPERIMENTAL_RESULT: 1.04
- COMPOUND: "Cc1c(C)c2c(c(C)c1O)CCC(C)(C(=O)O)O2 (stereo unspecified)"
  EXPERIMENTAL_RESULT: 1.07
- COMPOUND: "O=c1cc(-c2ccccc2)oc2cc(O)c(O)c(O)c12"
  EXPERIMENTAL_RESULT: 0.739
- COMPOUND: "COC(=O)c1ccc([C@H]2c3[nH]c4ccccc4c3C[C@H](C(=O)OC)N2C(=O)CCl)cc1"
  EXPERIMENTAL_RESULT: 1.16
- COMPOUND: "O=C(O)C(O)Cc1ccc(O)c(O)c1 (stereo unspecified) [Sodium Danshensu]"
  EXPERIMENTAL_RESULT: 0.931
- COMPOUND: "CNC(=O)c1ccc(C)c(-n2c(C)cc(OCc3ccc(F)cc3F)c(Br)c2=O)c1"
  EXPERIMENTAL_RESULT: 1.07
- COMPOUND: "COc1nc(-c2ccc3c(c2)OCO3)n(-c2ccc(NC(=O)CSc3ccccc3)cc2)n1"
  EXPERIMENTAL_RESULT: 0.816
- COMPOUND: "C[C@@H]1O[C@@H](Oc2c(-c3cc(O)c(O)c(O)c3)oc3cc(O)cc(O)c3c2=O)[C@H](O)[C@H](O)[C@H]1O"
  EXPERIMENTAL_RESULT: 1.07
- COMPOUND: "C[C@H]1[C@H](C)CC[C@]2(C(=O)O)CC[C@]3(C)C(=CC[C@@H]4[C@@]5(C)C[C@@H](O)[C@H](O)[C@@](C)(CO)[C@@H]5CC[C@]43C)[C@H]12"
  EXPERIMENTAL_RESULT: 0.985
- COMPOUND: "CC(C)N(CCCCOCC(=O)NS(C)(=O)=O)c1cnc(-c2ccccc2)c(-c2ccccc2)n1"
  EXPERIMENTAL_RESULT: 1.13
- COMPOUND: "CN(NC(=O)CC(=O)NN(C)C(=S)c1ccccc1)C(=S)c1ccccc1"
  EXPERIMENTAL_RESULT: 1.25
